# Study System: 5-hydroxytryptamine receptor 2A (Homo sapiens, UniProt P28223)
# Sequence (P28223 whole entry): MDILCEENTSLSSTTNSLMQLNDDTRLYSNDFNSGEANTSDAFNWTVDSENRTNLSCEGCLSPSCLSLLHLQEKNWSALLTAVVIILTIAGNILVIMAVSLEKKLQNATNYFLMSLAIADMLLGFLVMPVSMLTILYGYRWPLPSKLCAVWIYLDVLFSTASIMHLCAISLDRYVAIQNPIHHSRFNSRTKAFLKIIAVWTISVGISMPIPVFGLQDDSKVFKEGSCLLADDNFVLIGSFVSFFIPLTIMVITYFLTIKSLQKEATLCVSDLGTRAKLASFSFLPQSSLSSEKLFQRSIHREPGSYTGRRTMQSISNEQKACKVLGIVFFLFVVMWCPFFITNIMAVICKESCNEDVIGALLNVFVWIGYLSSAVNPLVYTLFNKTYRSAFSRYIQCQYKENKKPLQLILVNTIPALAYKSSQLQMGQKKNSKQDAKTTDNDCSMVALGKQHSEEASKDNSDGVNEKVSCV
Entries get a class label from measured Ki. See ranges: one: < 4 nM; two: ≥ 4 nM and < 20 nM; three: ≥ 20 nM

Would you please look over these solved cases?
{"Compound": "CN1CCN2c3c(cccc31)[C@H]1CN(CCCC(=O)c3ccc(F)cc3)CC[C@H]12", "Assigned Class": "two"}
{"Compound": "O=C(CCCN1CC[C@H]2[C@@H](C1)c1cccc3c1N2CCN3)c1ccc(F)cc1", "Assigned Class": "one"}

Which category does the recorded Ki put CN1CCN2c3c(cccc31)[C@@H]1CCN(CCCC(=O)c3ccc(F)cc3)CC[C@@H]12 in? one

Next: CC1CN(C)c2cccc3c2N1[C@H]1CCN(CCCC(=O)c2ccc(F)cc2)C[C@@H]31 (some centres not stated) two

Next: CN1CCN2c3c(cccc31)[C@@H]1CN(CCc3cc4c(cc3Cl)NC(=O)C4)CC[C@@H]12 three

Next: CN1CCN2c3c(cccc31)[C@@H]1CN(CCCC(=O)N3CCC(F)(F)CC3)CC[C@@H]12 three

Next: O=C(CCCN1CC[C@H]2[C@@H](C1)c1cccc3c1N2CCN3Cc1ccccc1)c1ccc(F)cc1 two

Next: CN1CCN2c3c(cccc31)[C@@H]1CN(CCCN3C(=O)[C@H]4CCCC[C@H]4C3=O)CC[C@@H]12 three

Next: CN1CCN2c3c(cccc31)[C@@H]1CN(CCCC(=O)c3ccc(F)cc3)CC[C@H]12 (stereo in doubt) three

Next: CN1CCN2c3c(cccc31)[C@H]1CN(CCCC(=O)c3ccc(F)cc3)CC[C@@H]12 (stereo in doubt) three

Next: O=C(CCCN1CC[C@H]2c3cccc4c3N(CCO4)[C@H]2CC1)c1ccc(F)cc1 two

Next: CN1CCN2c3c(cccc31)[C@@H]1CN(CCCCN3C(=O)[C@H]4CCCC[C@H]4C3=O)CC[C@@H]12 three

Next: CN1CCN2c3c(cccc31)[C@@H]1CN(CCCc3n[nH]c4cc(F)ccc34)CC[C@@H]12 two

Next: CN1CCN2c3c(cccc31)[C@H]1CCN(CCCC(=O)c3ccc(F)cc3)CC[C@H]12 two

Next: CN1CCN2c3c(cccc31)[C@@H]1CN(CCNC(=O)c3ccc(F)cc3)CC[C@@H]12 three

Next: O=C(CCCN1CC[C@H]2[C@@H](C1)c1cccc3c1N2CCC3)c1ccc(F)cc1 one

Provenance of the data: ChEMBL document CHEMBL3232708
